src = PubChem BioAssay AID1850

Reported inhibition values follow for various compounds
assay: PhoP regulon inhibitors, Salmonella typhi PhoP promoter GFP reporter, confirmatory (AID 1850); conditions: fluorescence, 4 h, at 50 µM, active compounds read high;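 note: 0% = induced wells with vehicle and 100% = uninduced wells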
The whole screen tested about 310,000 compounds, of which about 1,000 (0.32%) were called active. Only a sample is shown. Potency and affinity values are given separately.

compound	inhibition [%]
CCOC(=O)C(Cc1ccccc1)NC(=O)CNC(=O)CNC(=O)OCc1ccccc1 (stereo not drawn)	4.1
O=c1cc(-c2ccc(O)cc2)oc2cc(O)cc(O)c12	1.38
Cc1cc(C)cc(C(=O)NCC(=O)OC(C)C(=O)N(C)c2ccccc2)c1 (stereo not drawn)	-2.85
C#CCOCCOCCOCCNc1nc(N2CCN(C(=O)CCCCCCCCCCNC(=O)Cn3cc(C[C@@H](C)O)nn3)CC2)nc(N2CCN(C(=O)CCCCCCCCCCNC(=O)[C@@H](CCC(=O)O)n3cc(CCCCCN)nn3)CC2)n1	-25.1
CC(C)(C)c1ccc(S(=O)(=O)NNC(=O)C2CCN(Cc3cccc(F)c3)CC2)cc1	6.86
Cc1ccc(C[n+]2cc(-c3ccc(Cl)cc3)n3c2CCC3)cc1	8.21
O=C1CCS/C(=N\N=C\c2ccc(Cl)cc2Cl)N1	6.05
Cc1cc(C(=O)N/N=C/c2c(C)n(C)c3ccccc23)n[nH]1	-9.94
CCCCCCC(C)n1cc(C(C)=O)c(=O)n(C)c1=O (stereo not drawn)	-9.33
Cc1cccc(NC(=O)Nc2ccncc2)c1	16.9
C#CCOCCOCCOCCNc1nc(N2CCN(C(=O)Cn3cc(CCCCN)nn3)CC2)nc(N2CCN(C(=O)[C@H]([C@@H](C)CC)n3cc(CCCN=C(N)N)nn3)CC2)n1	5.45
Cc1ccccc1OCC(=O)Nc1nnc(COc2ccccc2)s1	-8.87
COc1c(O)c(O)c2oc(-c3ccccc3)cc(=O)c2c1OC	9.73
COc1ccc(S(=O)(=O)NN(C)c2ncc(C(F)(F)F)cc2Cl)cc1	2.03
Clc1ccc(-c2c[n+](Cc3ccc(Br)cc3)c3n2CCCCC3)cc1	4.54
CCCNS(=O)(=O)c1cc2c3c(c1)C(C)C(=O)N3CCC2 (stereo not drawn)	8.86
C#CCOCCOCCOCCNc1nc(N2CCN(C(=O)CCCCCCCCCCNC(=O)Cn3cc(CCCCCN)nn3)CC2)nc(N2CCN(C(=O)CCCCCCCCCCNC(=O)[C@H](CO)n3cc(CCCCCN)nn3)CC2)n1	16.5
C#CCOCCOCCOCCNc1nc(N2CCN(C(=O)CCCCCCCCCCNC(=O)Cn3cc(CCCCCN)nn3)CC2)nc(N2CCN(C(=O)CCCCCCCCCCNC(=O)Cn3cc(C[C@@H](C)O)nn3)CC2)n1	-2.3

====

assay: PhoP regulon inhibitors, Salmonella typhi PhoP promoter GFP reporter, confirmatory (AID 1850); details: fluorescence, 4 h, at 50 µM, active compounds read high;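 note: 0% = induced wells with vehicle and 100% = uninduced wells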
In all, about 310,000 compounds went through this assay and about 1,000 (0.32%) were called active. These entries were drawn from the full list. Measured potencies and affinities stand elsewhere.
Entries and their inhibition values follow.
result type: inhibition (%)

> print(dat)
                                    compound  result.type  value.reported
 1  O=c1c(/C=N\NS(=O)(=O)c2ccccc2)coc2ccc(Cl)cc12   inhibition           -7.39
 2   CN(C)c1ccc(CN(Cc2ccco2)C(=O)c2ccco2)cc1   inhibition           -2.38
 3  CCOC(=O)C1(CCCc2ccccc2)CCN(C(=O)CCN2CCCCC2=O)CC1   inhibition            -9.1
 4  CC[n+]1c(/C=C/c2ccc(N(C)C)cc2)ccc2ccccc21   inhibition            1.34
 5  NC(=O)c1ncn([C@@H]2O[C@H](CO)[C@@H](O)[C@H]2O)c1O   inhibition            4.75
 6              Cc1cc(/C=N/O)c(C)n1-c1ccccc1   inhibition           -9.52
 7  Cc1cn(C2OC(COC(=O)c3ccccc3)C(O)C2O)c(=O)[nH]c1=O (configuration not stated)   inhibition           -7.25
 8             O=C1c2ccccc2C(=O)N1OCc1ccccc1   inhibition           -23.3
 9  CCOC(=O)N1CCN(S(=O)(=O)c2ccc(C(=O)Nc3nnc(CSC)o3)cc2)CC1   inhibition           -31.1
10  CCC1=C2CC[C@H]3C(=O)N(C)C(=O)[C@H]3[C@H]2[C@@]2(Cc3ccccc3)C(=NCC(=O)OC)OC(=O)N2C1=O   inhibition           -11.3
11  Cc1cc(/C=C2\SC(=O)NC2=O)c(C)n1-c1ccc(N(C)C)cc1   inhibition           -4.88
12  Cc1cccc(OCCCC(=O)Nc2ccc(S(N)(=O)=O)cc2)c1   inhibition           -6.31
13      C[n+]1c(/C=C/c2ccc(O)cc2)ccc2ccccc21   inhibition            10.8
14  CS(=O)(=O)N(CC(=O)Nc1ccccc1C(=O)NCc1ccco1)c1ccc2c(c1)OCCO2   inhibition           -8.68
15          Cc1cccc(NCC(=O)N/N=C\c2cccn2C)c1   inhibition           -0.18
16  O=C(COc1ccc2c3c(c(=O)oc2c1)CCC3)N[C@@H](CSCc1ccccc1)C(=O)O   inhibition            11.7
17  COc1ccccc1NC(=O)/C(=C\c1cccnc1)NC(=O)c1ccccc1   inhibition           -1.82
18       CCCNCc1cc(Br)ccc1OCC(=O)NCCc1ccccc1   inhibition           -3.03
19  Nc1ccn([C@@H]2O[C@H](CO)[C@@H](O)C2O)c(=O)n1 (some centres not stated)   inhibition            6.26
20  O=C1CSC(c2cccc([N+](=O)[O-])c2)N1CCN1CCCCC1 (configuration not stated)   inhibition           -7.55
21  Cc1ccc([N+](=O)[O-])cc1S(=O)(=O)NCc1cccnc1   inhibition          -0.437
22  O=C(Nc1ccc(C(=O)O)cc1)/C(=C\C=C\c1ccccc1)NC(=O)c1cccc(Br)c1   inhibition             9.6
